# test name: Kinetic solubility of compound at pH 2
# Type: physicochemical
# applied conditions: buffer, read-out: Kinetic_solubility
solubility kinetic below 8 µM gives -1; solubility kinetic at or above it gives 1.

O=C1NC(=O)/C(=C/C(Cc2ccccc2)c2ccc(-c3ccc4cccc(F)c4c3)[nH]c2=O)O1 (configuration not stated); -1
CCC(/C=C1\OC(=O)NC1=O)(CC)c1ccc(-c2ccc3cccc(F)c3c2)[nH]c1=O; 1
CC(C)[C@@H](c1ccc(-c2ccc3cccc(F)c3c2)[nH]c1=O)[C@@H]1OC(=O)NC1=O (relative stereo); -1
CC(C)C(c1ccc(-c2ccc3cccc(F)c3c2)[nH]c1=O)C1SC(=O)NC1=O (configuration not stated); 1
CC(C)[C@@H](c1ccc(-c2ccc3cccc(F)c3c2)[nH]c1=O)[C@H]1OC(=O)NC1=O (relative stereo); -1
CC(C)C(c1ccc(-c2ccc3cccc(F)c3c2)[nH]c1=O)C1NC(=O)NC1=O (configuration not stated); -1
CC(C)[C@H](C[C@@H]1OC(=O)NC1=O)c1ccc(-c2ccc3cccc(F)c3c2)[nH]c1=O (relative stereo); 1
CC(C)/C(=C1\C(=O)NC(=O)N1C)c1ccc(-c2ccc3cccc(F)c3c2)[nH]c1=O; 1
CC(C)C(/C=C1\NC(=O)NC1=O)c1ccc(-c2ccc3cccc(F)c3c2)[nH]c1=O (configuration not stated); -1
CC(C)[C@H](C[C@H]1SC(=O)NC1=O)c1ccc(-c2ccc3cccc(F)c3c2)[nH]c1=O (relative stereo); -1
C/C(=C1/OC(=O)NC1=O)C(c1ccc(-c2ccc3cccc(F)c3c2)[nH]c1=O)C(C)C (configuration not stated); 1
CCN1CCOc2ccc(-c3ccc(C(/C=C4\OC(=O)NC4=O)(CC)CC)c(=O)[nH]3)cc21; 1
CC(C)C(/C=C1\SC(=O)NC1=O)c1ccc(-c2ccc3cccc(F)c3c2)[nH]c1=O (configuration not stated); -1
CC(C)[C@@H](/C=C1\OC(=O)NC1=O)c1ccc(-c2ccc3cccc(F)c3c2)[nH]c1=O; -1
O=C1NC(=O)/C(=C/C2(c3ccc(-c4ccc5cccc(F)c5c4)[nH]c3=O)CC2)O1; 1
O=C1NC(=O)/C(=C/C(c2ccc(-c3ccc4cccc(F)c4c3)[nH]c2=O)C2CC2)O1 (configuration not stated); -1
CC(C)C(CC1C(=O)NC(=O)N1C)c1ccc(-c2ccc3cccc(F)c3c2)[nH]c1=O (configuration not stated); 1
CC(C)/C(=C1/SC(=O)NC1=O)c1ccc(-c2ccc3cccc(F)c3c2)[nH]c1=O; 1
Cc1cc(C(/C=C2\OC(=O)NC2=O)C(C)C)c(=O)[nH]c1-c1ccc2cccc(F)c2c1 (configuration not stated); 1
CC(C)C(CC1NC(=O)NC1=O)c1ccc(-c2ccc3cccc(F)c3c2)[nH]c1=O (configuration not stated); 1
CC(C)(/C=C1\OC(=O)NC1=O)c1ccc(-c2ccc3cccc(F)c3c2)[nH]c1=O; -1
O=C1NC(=O)/C(=C/C2(c3ccc(-c4ccc5cccc(F)c5c4)[nH]c3=O)CCCC2)O1; -1
CC(C)[C@H](C[C@H]1OC(=O)NC1=O)c1ccc(-c2ccc3cccc(F)c3c2)[nH]c1=O (relative stereo); 1
CC(C)[C@@H](C[C@H]1SC(=O)NC1=O)c1ccc(-c2ccc3cccc(F)c3c2)[nH]c1=O (relative stereo); 1
CC(C)C(c1ccc(-c2ccc3cccc(F)c3c2)[nH]c1=O)C1C(=O)NC(=O)N1C (configuration not stated); 1
O=C1NC(=O)/C(=C/C(c2ccccc2)c2ccc(-c3ccc4cccc(F)c4c3)[nH]c2=O)O1 (configuration not stated); 1
CCn1ncc2c(F)cc(-c3ccc(C(/C=C4\OC(=O)NC4=O)(CC)CC)c(=O)[nH]3)cc21; 1
CC(C)C(/C=C1/C(=O)NC(=O)N1C)c1ccc(-c2ccc3cccc(F)c3c2)[nH]c1=O (configuration not stated); 1
CC(C)C(/C=C1\OC(=O)NC1=O)c1cc(Cl)c(-c2ccc3cccc(F)c3c2)[nH]c1=O (configuration not stated); -1
CCC(CC)C(/C=C1\OC(=O)NC1=O)c1ccc(-c2ccc3cccc(F)c3c2)[nH]c1=O (configuration not stated); -1
CC(C)[C@H](/C=C1\OC(=O)NC1=O)c1ccc(-c2ccc3cccc(F)c3c2)[nH]c1=O; 1

Data origin: ChEMBL document CHEMBL4680377
